- SYSTEM: Full length human recombinant PIKFYVE (Homo sapiens (Human), UniProt Q9Y2I7)
- Sequence (Q9Y2I7 whole entry): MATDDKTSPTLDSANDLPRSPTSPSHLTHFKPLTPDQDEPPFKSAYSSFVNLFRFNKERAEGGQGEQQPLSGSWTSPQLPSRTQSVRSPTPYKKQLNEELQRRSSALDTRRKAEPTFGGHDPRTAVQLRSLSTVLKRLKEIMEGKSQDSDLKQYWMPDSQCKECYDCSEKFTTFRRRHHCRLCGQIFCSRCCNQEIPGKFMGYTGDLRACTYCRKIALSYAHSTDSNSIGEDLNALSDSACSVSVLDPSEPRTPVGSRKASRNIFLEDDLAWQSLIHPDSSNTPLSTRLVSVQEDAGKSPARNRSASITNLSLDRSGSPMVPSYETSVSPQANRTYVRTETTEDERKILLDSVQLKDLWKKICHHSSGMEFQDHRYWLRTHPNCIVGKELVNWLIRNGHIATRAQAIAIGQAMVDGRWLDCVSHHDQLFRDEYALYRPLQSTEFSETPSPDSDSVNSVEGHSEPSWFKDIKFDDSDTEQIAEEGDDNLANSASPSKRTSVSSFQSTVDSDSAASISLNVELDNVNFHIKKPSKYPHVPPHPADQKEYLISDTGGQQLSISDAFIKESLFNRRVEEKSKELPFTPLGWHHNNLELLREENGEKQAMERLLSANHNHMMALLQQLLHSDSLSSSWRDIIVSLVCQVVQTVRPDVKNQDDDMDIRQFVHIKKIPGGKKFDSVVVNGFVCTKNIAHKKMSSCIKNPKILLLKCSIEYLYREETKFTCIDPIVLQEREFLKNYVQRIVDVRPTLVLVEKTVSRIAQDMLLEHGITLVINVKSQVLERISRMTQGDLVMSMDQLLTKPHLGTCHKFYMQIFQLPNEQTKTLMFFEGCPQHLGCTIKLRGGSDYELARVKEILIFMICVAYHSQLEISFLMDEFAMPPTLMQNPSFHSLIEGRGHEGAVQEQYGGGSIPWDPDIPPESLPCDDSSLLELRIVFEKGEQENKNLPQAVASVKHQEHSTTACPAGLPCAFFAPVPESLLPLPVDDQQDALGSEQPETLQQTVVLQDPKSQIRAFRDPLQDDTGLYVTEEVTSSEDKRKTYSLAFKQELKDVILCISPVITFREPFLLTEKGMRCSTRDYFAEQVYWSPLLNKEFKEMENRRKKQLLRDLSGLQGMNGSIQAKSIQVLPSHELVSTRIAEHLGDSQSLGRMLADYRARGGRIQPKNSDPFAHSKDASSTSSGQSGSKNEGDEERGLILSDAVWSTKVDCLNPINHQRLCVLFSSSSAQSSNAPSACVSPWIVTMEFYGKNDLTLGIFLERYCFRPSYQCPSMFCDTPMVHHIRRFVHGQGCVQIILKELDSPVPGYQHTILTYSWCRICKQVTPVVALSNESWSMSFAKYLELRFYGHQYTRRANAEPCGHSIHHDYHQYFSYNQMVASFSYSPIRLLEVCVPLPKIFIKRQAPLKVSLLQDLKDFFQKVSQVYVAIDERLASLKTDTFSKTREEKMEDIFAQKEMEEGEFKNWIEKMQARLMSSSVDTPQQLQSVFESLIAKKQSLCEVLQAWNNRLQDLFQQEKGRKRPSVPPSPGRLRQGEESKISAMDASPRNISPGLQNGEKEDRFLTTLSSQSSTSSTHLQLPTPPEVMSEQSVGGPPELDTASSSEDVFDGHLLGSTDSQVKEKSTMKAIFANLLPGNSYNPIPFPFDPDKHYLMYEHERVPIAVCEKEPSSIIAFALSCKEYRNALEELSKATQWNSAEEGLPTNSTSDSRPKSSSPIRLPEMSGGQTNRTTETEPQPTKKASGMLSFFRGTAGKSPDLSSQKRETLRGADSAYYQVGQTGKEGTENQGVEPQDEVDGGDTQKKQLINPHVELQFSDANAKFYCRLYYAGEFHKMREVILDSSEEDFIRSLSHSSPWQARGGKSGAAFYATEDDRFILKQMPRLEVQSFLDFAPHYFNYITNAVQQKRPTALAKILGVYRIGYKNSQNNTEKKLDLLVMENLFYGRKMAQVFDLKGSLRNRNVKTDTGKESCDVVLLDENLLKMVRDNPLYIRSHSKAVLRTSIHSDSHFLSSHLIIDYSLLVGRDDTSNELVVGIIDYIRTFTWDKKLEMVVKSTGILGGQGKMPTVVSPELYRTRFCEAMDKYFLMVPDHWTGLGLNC
- PROCEDURE DETAILS: Inhibition of PIKfyve (microfluidic electrophoresis kinase assay)
- EXPERIMENTAL PARAMETERS: 2 nM enzyme, PI3P/PS substrate, 3 h at room temperature, 12 concentrations
pIC50: −log10 of the molar value.
Decision: pIC50 compared against 7; not below it gives fulfilled, below it gives not fulfilled.

>  <COMPOUND STRUCTURE STRING>
c1ccc(-c2ccn(-c3cc(N4CCOCC4)n4nc(-c5cc[nH]n5)cc4n3)n2)cc1

>  <QUALITATIVE LABEL>
not fulfilled

$$$$
>  <COMPOUND STRUCTURE STRING>
Cc1cccc(-c2ccn(-c3cc(N4CCOCC4)n4nc(-c5cc[nH]n5)cc4n3)n2)c1

>  <QUALITATIVE LABEL>
fulfilled

$$$$
>  <COMPOUND STRUCTURE STRING>
CCN(C)C(=O)c1cc2nc(-n3ccc(-c4cccc(C)c4)n3)cc(N3CCOCC3)n2n1

>  <QUALITATIVE LABEL>
not fulfilled

$$$$
>  <COMPOUND STRUCTURE STRING>
CC(C)NC(=O)c1cc2nc(-n3ccc(-c4ccccc4)n3)cc(N3CCOCC3)n2n1

>  <QUALITATIVE LABEL>
not fulfilled

$$$$
>  <COMPOUND STRUCTURE STRING>
O=C(NCC1COC1)c1cc2nc(-n3ccc(-c4ccccc4)n3)cc(N3CCOCC3)n2n1

>  <QUALITATIVE LABEL>
not fulfilled

$$$$
>  <COMPOUND STRUCTURE STRING>
Brc1cccc(-c2ccn(-c3cc(N4CCOCC4)n4nc(-c5cccnc5)cc4n3)n2)c1

>  <QUALITATIVE LABEL>
fulfilled

$$$$

The origin of these recorded values is patent US12486274B2.
